Listed molecules paired with reported inhibition at 50 µg/mL
- System: M. tuberculosis H37Rv
- Test Description: Microplate Alamar Blue Assay (MABA) against M. tuberculosis H37Rv
- Type: cell-based
- Condition Summary: Mycobacterium tuberculosis, read-out: M. tuberculosis H37Rv (% of inhibition) 50 μg/mL

Molecule: N#Cc1c(NC(=O)c2ccc(Cl)cc2)oc(-c2ccccc2)c1-c1ccccc1 [Compound 2c]
Target Under Test: M. tuberculosis H37Rv
inhibition at 50 µg/mL: 19%

Molecule: N#Cc1c(N)oc(-c2ccccc2)c1-c1ccccc1 [Compound 1, 2-Amino-4,5-diphenylfuran-3-carbonitrile]
Target Under Test: M. tuberculosis H37Rv
inhibition at 50 µg/mL: 6%

Molecule: CC(=O)Nc1oc(-c2ccccc2)c(-c2ccccc2)c1C#N [Compound 2a]
Target Under Test: M. tuberculosis H37Rv
inhibition at 50 µg/mL: 27%

Molecule: N#Cc1c(NC(=O)c2ccccc2)oc(-c2ccccc2)c1-c1ccccc1 [Compound 2b]
Target Under Test: M. tuberculosis H37Rv
inhibition at 50 µg/mL: 6%

Molecule: Cc1ccc(S(=O)(=O)Nc2oc(-c3ccccc3)c(-c3ccccc3)c2C#N)cc1 [Compound 2d]
Target Under Test: M. tuberculosis H37Rv
inhibition at 50 µg/mL: 9%
